Test system: SK-MEL-28
Experiment: Cytotoxicity against human SK-MEL-28 cells after 48 hrs by SRB assay
Type: functional, cell-based
readout: Activity

Value sought for every listed molecule: Activity.
1. C/C=C1\NC(=O)[C@H](Cc2ccccc2)NC(=O)[C@@H](C(C)C)NC(=O)[C@@H]([C@H](C)CC)NC(=O)[C@H](NC(=O)[C@H](NC(=O)[C@H](CCCN)NC(=O)[C@H]2CCCN2C(=O)[C@H](NC(=O)[C@@H](NC(=O)[C@@H](NC(=O)[C@H](NC(C)=O)C(C)C)[C@@H](C)O)C(C)C)C(C)C)[C@H](C)CC)[C@H](C)OC(=O)[C@H](C(C)C)NC1=O
2. C/C=C1\NC(=O)[C@H](Cc2ccccc2)NC(=O)[C@@H](C(C)C)NC(=O)[C@@H]([C@H](C)CC)NC(=O)[C@H](NC(=O)[C@H](NC(=O)[C@H](CCCN)NC(=O)[C@H]2CCCN2C(=O)[C@H](NC(=O)[C@@H](NC(=O)[C@@H](NC(=O)[C@H](NC(=O)CCC(C)C)C(C)C)[C@@H](C)O)C(C)C)C(C)C)[C@H](C)CC)[C@H](C)OC(=O)[C@H](C(C)C)NC1=O

7.11 ×10⁻⁶ M
3.42 ×10⁻⁶ M

Can you give me Activity for all of these, one by one?
1. C/C=C1\NC(=O)[C@H](Cc2ccccc2)NC(=O)[C@@H](C(C)C)NC(=O)[C@@H]([C@H](C)CC)NC(=O)[C@H](NC(=O)[C@H](NC(=O)[C@H](CCCN)NC(=O)[C@H]2CCCN2C(=O)[C@H](NC(=O)[C@@H](NC(=O)[C@@H](NC(=O)[C@H](NC(=O)/C=C/C=C/C)C(C)C)[C@@H](C)O)C(C)C)C(C)C)[C@H](C)CC)[C@H](C)OC(=O)[C@H](C(C)C)NC1=O
2. C/C=C1\NC(=O)[C@H](Cc2ccccc2)NC(=O)[C@@H](C(C)C)NC(=O)[C@@H]([C@H](C)CC)NC(=O)[C@H](NC(=O)[C@H](NC(=O)[C@H](CCCN)NC(=O)[C@H]2CCCN2C(=O)[C@H](NC(=O)[C@@H](NC(=O)[C@@H](NC(=O)[C@H](NC(=O)CC(C)(C)C)C(C)C)[C@@H](C)O)C(C)C)C(C)C)[C@H](C)CC)[C@H](C)OC(=O)[C@H](C(C)C)NC1=O
3. C/C=C1\NC(=O)[C@H](Cc2ccccc2)NC(=O)[C@@H](C(C)C)NC(=O)[C@@H]([C@H](C)CC)NC(=O)[C@H](NC(=O)[C@H](NC(=O)[C@H](CCCN)NC(=O)[C@H]2CCCN2C(=O)[C@H](NC(=O)[C@@H](NC(=O)[C@@H](NC(=O)[C@H](NC(=O)CCC)C(C)C)[C@@H](C)O)C(C)C)C(C)C)[C@H](C)CC)[C@H](C)OC(=O)[C@H](C(C)C)NC1=O
4. C/C=C1\NC(=O)[C@H](Cc2ccccc2)NC(=O)[C@@H](C(C)C)NC(=O)[C@@H]([C@H](C)CC)NC(=O)[C@H](NC(=O)[C@H](NC(=O)[C@H](CCCN)NC(=O)[C@H]2CCCN2C(=O)[C@H](NC(=O)[C@@H](NC(=O)[C@@H](NC(=O)[C@H](NC(=O)[C@H](NC(=O)C(C)C)[C@H](C)CC)C(C)C)[C@@H](C)O)C(C)C)C(C)C)[C@H](C)CC)[C@H](C)OC(=O)[C@H](C(C)C)NC1=O
5. C/C=C1\NC(=O)[C@H](Cc2ccccc2)NC(=O)[C@@H](C(C)C)NC(=O)[C@@H]([C@H](C)CC)NC(=O)[C@H](NC(=O)[C@H](NC(=O)[C@H](CCCN)NC(=O)[C@H]2CCCN2C(=O)[C@H](NC(=O)[C@@H](NC(=O)[C@@H](NC(=O)[C@H](NC(=O)CCCOC(C)=O)C(C)C)[C@@H](C)O)C(C)C)C(C)C)[C@H](C)CC)[C@H](C)OC(=O)[C@H](C(C)C)NC1=O
6. C/C=C1\NC(=O)[C@H](Cc2ccccc2)NC(=O)[C@@H](C(C)C)NC(=O)[C@@H]([C@H](C)CC)NC(=O)[C@H](NC(=O)[C@H](NC(=O)[C@H](CCCN)NC(=O)[C@H]2CCCN2C(=O)[C@H](NC(=O)[C@@H](NC(=O)[C@@H](NC(=O)[C@H](NC(=O)C(F)(F)F)C(C)C)[C@@H](C)O)C(C)C)C(C)C)[C@H](C)CC)[C@H](C)OC(=O)[C@H](C(C)C)NC1=O

6.85 ×10⁻⁶ M
3.42 ×10⁻⁶ M
3.48 ×10⁻⁶ M
6.46 ×10⁻⁶ M
6.7 ×10⁻⁶ M
6.84 ×10⁻⁶ M

Fill in Activity for each of the 2 molecules listed.
1. C/C=C1\NC(=O)[C@H](Cc2ccccc2)NC(=O)[C@@H](C(C)C)NC(=O)[C@@H]([C@H](C)CC)NC(=O)[C@H](NC(=O)[C@H](NC(=O)[C@H](CCCN)NC(=O)[C@H]2CCCN2C(=O)[C@H](NC(=O)[C@@H](NC(=O)[C@@H](NC(=O)[C@H](NC(=O)CCCOC(=O)CCOC(C)=O)C(C)C)[C@@H](C)O)C(C)C)C(C)C)[C@H](C)CC)[C@H](C)OC(=O)[C@H](C(C)C)NC1=O
2. C/C=C1\NC(=O)[C@H](Cc2ccccc2)NC(=O)[C@@H](C(C)C)NC(=O)[C@@H]([C@H](C)CC)NC(=O)[C@H](NC(=O)[C@H](NC(=O)[C@H](CCCN)NC(=O)[C@H]2CCCN2C(=O)[C@H](NC(=O)[C@@H](NC(=O)[C@@H](NC(=O)[C@H](NC(=O)CCCO)C(C)C)[C@@H](C)O)C(C)C)C(C)C)[C@H](C)CC)[C@H](C)OC(=O)[C@H](C(C)C)NC1=O

1. 6.33 ×10⁻⁷ M
2. 6.89 ×10⁻⁶ M
